Molecular target: HiBit-KRAS^G12C (Homo sapiens, UniProt P01116, G12C)
Sequence (P01116 1-186 isoform P01116-2 G12C limits assumed): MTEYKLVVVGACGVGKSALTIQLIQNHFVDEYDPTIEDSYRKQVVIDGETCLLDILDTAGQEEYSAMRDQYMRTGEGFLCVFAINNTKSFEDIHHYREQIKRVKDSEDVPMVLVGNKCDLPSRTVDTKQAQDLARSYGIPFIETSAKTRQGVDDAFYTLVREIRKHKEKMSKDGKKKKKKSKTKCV
Experiment: HiBit degradation assay in SW1573 HiBit-KRas^G12C cells
Format: cell-based
Parameters: expressed in transfected cells; host or cells: SW1573 (clone E6), modified pcDNA3.1 vector, TK promoter
Settings: SW1573 HiBit-KRas^G12C, 0.1% DMSO, 24 hours; read-out: KRas^G12C-HIBit (SW1573; 0.1% DMSO) DC50*
reported-endpoint: DC50

Consider the reported DC50 for these compounds:
C=C(F)C(=O)N1CCN(c2nc(OCCN3CCC(COCC(=O)N[C@H](C(=O)N4C[C@H](O)C[C@H]4C(=O)N[C@@H](C)c4ccc(-c5scnc5C)cc4)C(C)(C)C)CC3)nc3c(F)c(-c4cc(O)cc5ccccc45)c(Cl)cc23)C[C@@H]1CC#N ... 100 to 1000 nM
C=CC(=O)N1CCN(c2nc(O[C@H](C)CN3CC(N4CCN(CC(=O)N[C@H](C(=O)N5C[C@H](O)C[C@H]5C(=O)N[C@@H](C)c5ccc(-c6scnc6C)cc5)C(C)(C)C)CC4)C3)nc3c(F)c(-c4cc(O)cc5ccccc45)c(Cl)cc23)CC1 ... 100 to 1000 nM
C=CC(=O)N1CCN(c2nc(O[C@H](C)CN3CC(CN4CCN(CC(=O)N[C@H](C(=O)N5C[C@H](O)C[C@H]5C(=O)N[C@@H](C)c5ccc(-c6scnc6C)cc5)C(C)(C)C)CC4)C3)nc3c(F)c(-c4cc(O)cc5ccccc45)c(Cl)cc23)CC1 ... > 1000 nM

Per the record, C=CC(=O)N1CCN(c2nc(OCCN3CCC(COCC(=O)N[C@H](C(=O)N4C[C@@H](O)C[C@H]4C(=O)N[C@@H](C)c4ccc(-c5scnc5C)cc4)C(C)(C)C)CC3)nc3c(F)c(-c4cc(O)cc5ccccc45)c(Cl)cc23)C[C@@H]1CC#N has DC50 of > 1000 nM
